All values here come from PubChem BioAssay (NCI).

Tested on: SK-OV-3 ovarian
Assay: NCI-60 one-dose screen, 48 h (100 = growth as untreated, 0 = no growth, -100 = all killed)
Settings: 10 µM unless noted
Experimental: Growth inhibition of the SK-OV-3 human tumor cell line is measured as a screen for anti-cancer activity. Cells are grown in 96 well plates and exposed to the test compound for 48 hours. Compounds are tested at a single concentration, which is 10^-5 M for most compounds. The reported endpoint is percent growth (GI% or GIPRCNT), where numbers from 0 - 100% represent growth inhibition, and numbers from -100% - 0 represent cell death. For example, a value of 40 represents 60% growth inhibition. […]
About 83,000 compounds went through this panel and 20% of them were active in at least one assay; those are over-represented in the sample as a whole.
Lab note - cut at 90% for growth: Criterion met if strictly below, Criterion not met if not.

COMPOUND	CAT
c1cc(OCCN2CCCCC2)ccc1CNc1ccc2nc(CCC3CCCCC3)[nH]c2c1	Criterion met
CC1(C)CC(=O)C2=C(C1)C(c1ccc(Cl)cc1)n1ncc(C#N)c1N2 (centres undefined)	Criterion met
C[C@@H]1CN(c2cnc(C(=O)Nc3cc(F)cc4cccnc34)cn2)C[C@H](C)N1	Criterion met
COC(=O)[C@@]12CC=C(C)[C@]3(C[C@H](c4ccoc4)OC3=O)[C@H]1C=C[C@@H](O)[C@@]2(O)C(=O)OC	Criterion not met
CCCN(CCSSCCNc1nc(N(C)O)nc(N(C)O)n1)c1nc(N(C)O)nc(N(C)O)n1	Criterion met
O=C(/C=C/c1ccco1)Nc1ncc(Cc2cc(Cl)ccc2Cl)s1	Criterion met
COc1cc(/C=N/NC(=O)c2ccc(-n3cc(-c4ccccc4)nn3)cc2)cc(OC)c1OC	Criterion met
C=C1CC[C@@H]2C(C)(C)[C@H](O)CC[C@@]2(C)[C@@H]1COc1ccc2ccc(=O)oc2c1	Criterion not met

---

test system: COLO 205 colon; assay: NCI-60 one-dose screen, 48 h (100 = growth as untreated, 0 = no growth, -100 = all killed); conditions: 10 µM unless noted
Compounds without any hit were thinned out: in the full panel of roughly 83,000, 20% have a hit. Active and inactive are the calls of the source. The calls were made as follows: active = growth percent below 10; inactive = the rest.
Parameter: growth. Scope: all listed entries.
MEASUREMENT LABEL: growth

COMPOUND	SYSTEM NAME	MEASUREMENT LABEL	RESULT
O=C1C=C(SCCO)C(=O)c2ccccc21	COLO 205 colon	growth	76.3% (inactive)
Fc1cccc(CNc2c3ccccc3nc3ccccc23)c1	COLO 205 colon	growth	17.3% (inactive)
O=C(Oc1ccc2c(c1)sc1nc(-c3ccccc3)[nH]c(=O)c12)C(F)(F)F	COLO 205 colon	growth	88.3% (inactive)
CCN1C(=O)N(c2ccccc2)C2NC(=S)N(/N=C/C=C/c3ccccc3OC)C21 (stereo not given)	COLO 205 colon	growth	6.54% (active)
O=C(CN1C(=O)S/C(=C\C(Cl)=C\c2ccccc2)C1=O)NC1CCS(=O)(=O)C1 (stereo not given)	COLO 205 colon	growth	59% (inactive)
Cc1nc([P+](c2ccccc2)(c2ccccc2)c2ccccc2)c(N2CCCCC2)o1	COLO 205 colon	growth	-45.3% (active)
N=C(N)c1ccc(-c2ccc(-c3ccccc3)o2)o1	COLO 205 colon	growth	-73.1% (active)
COc1cc(C=C2C(=O)NC(=S)NC2=O)cc(CN2CCCC2)c1O	COLO 205 colon	growth	120% (inactive)
O=C(/C=C/c1ccco1)Nc1ncc(Cc2cc(Cl)ccc2Cl)s1	COLO 205 colon	growth	-14.2% (active)
CC12OC(CC(O)C1O)n1c3ccccc3c3c4c(c5c6ccccc6n2c5c31)C(=O)N(CCN1CCCC1)C4=O (stereo not given)	COLO 205 colon	growth	14.4% (inactive)
